Test system: SW837
Assay: Cell growth inhibition assay (Cell Titer Glo), SW837
Assay type: cell-based
Conditions: Homo sapiens, 72 h; SW837 colon; BRAF WT, KRAS G12C, PIK3CA WT; 3 days; read-out: IC50 values, Single Agent
Measured IC50, listed per entry.

Find the measured IC50 of `Cn1ncc(Cl)c1-c1cc(C(=O)N[C@H](CN)Cc2cccc(F)c2)sc1Cl` and report it.
> 10 µM

Quote IC50 reported for `CC(C)(C)c1nc(-c2cccc(NS(=O)(=O)c3c(F)cccc3F)c2F)c(-c2ccnc(N)n2)s1` please.
> 10 µM

---

Reported IC50 values for a set of molecules
System: DLD1
Test: Cell growth inhibition assay (Cell Titer Glo), DLD1
Format: cell-based
Settings: Homo sapiens, DLD-1, 72 h; DLD1 colon; BRAF WT, KRAS G13D, PIK3CA E545K, D549N; 3 days; read-out: IC50 values, Single Agent

| molecule | result |
| --- | --- |
| Cn1ncc(Cl)c1-c1cc(C(=O)N[C@H](CN)Cc2cccc(F)c2)sc1Cl [Compound B] | > 10 µM |

Please find the next molecule below.
Name the recorded IC50 of the item CC(C)(C)c1nc(-c2cccc(NS(=O)(=O)c3c(F)cccc3F)c2F)c(-c2ccnc(N)n2)s1 [Compound A] in your answer.
> 10 µM

---

Test system: HT29
Assay: Cell growth inhibition assay (Cell Titer Glo), HT29
Format: cell-based, Human
Conditions: Homo sapiens, HT-29, 72 h; HT29 colon; BRAF V600E, KRAS WT, PIK3CA P449T; 3 days; mean ± std; read-out: IC50 values, Single Agent
reported_metric: pIC50
pIC50 here is simply -log10 of the concentration when that concentration is written in mol/L.

Read the entry Cn1ncc(Cl)c1-c1cc(C(=O)N[C@H](CN)Cc2cccc(F)c2)sc1Cl [Compound B] and write its reported pIC50.
5.84
